Molecular target: T1, human galectin-10-His (human)
T1 construct: The last M of the tag may be Met1 of galectin-10; also called humanGal10-His; hGal10
T1 chain: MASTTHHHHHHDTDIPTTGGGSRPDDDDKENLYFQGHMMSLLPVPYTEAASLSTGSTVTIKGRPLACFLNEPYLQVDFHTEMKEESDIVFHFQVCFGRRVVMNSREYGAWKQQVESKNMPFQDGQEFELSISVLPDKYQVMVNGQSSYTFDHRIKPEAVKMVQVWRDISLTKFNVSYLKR
Experiment: SPR Biacore T3000, scFv-human Fc captured
pKd: −log10 of the molar value.
Each entry below lists one item and its recorded pKd value.
Property: pKd

{"columns": ["Binder", "Property", "Value Observed"],
 "data": [
  ["10B02 scFv-human Fc (Fc fusion, also called 010B02; not shown: CH2-CH3 constant domains of human IgG1 (pUPEX50 scFv-Fc fusion vector)) scFv: QVQLVESGGGLVQPGGSLRVSCAASGFTFSYHYMNWVRQAPGKGLEWVSGISAGGGRTYYADSVKGRFTISRDNAKNTLYLQMNSLNAEDTALYYCARVHGITNDYWGQGTQVTVSSGGGGSGGGGSGGGGSQSALTQPPSVSGSPGKTVTISCAGTSSDVGYGNYVSWYQQLPGMAPKLLIYEVNKRASGITDRFSGSKSGNTAFLTISGLQSEDEADYYCASYRNSNNWVFGGGTHLTVL", "pKd", 8.80],
  ["11F12 scFv-human Fc (Fc fusion, also called 011F12; not shown: CH2-CH3 constant domains of human IgG1 (pUPEX50 scFv-Fc fusion vector)) scFv: QVQLQESGGGLVQPGGSLRLSCAASGFTFSTNYMNWVRQAPGKGLEWVSGITSGGGRTYYADSVKGRFTISRDNAKNTLYLQMNSLKPEDTALYYCARTDHAWLDAWGQGTLVTVSSGGGGSGGGGSGGGGSHSAVTQPPSVSGTLGKTVTISCAGTSSDVGYGNYVSWYQHLPGTAPKLLIYAVSTRASGVPDRFSGSKSGNTASLTISGLQSEDEGDYYCASYSVRNNVVFGGGTRLTVL", "pKd", 8.64],
  ["10A06 scFv-human Fc (Fc fusion, also called 010A06; not shown: CH2-CH3 constant domains of human IgG1 (pUPEX50 scFv-Fc fusion vector)) scFv: QVQLVESGGGLVQPGGSLRLSCAASGFTFGNYDMSWVRQAPGKGPEWVSDINSGGGSTYYADSVKGRFTISRDNAKNSLLLQMNSLKPEDTAVYYCATGYTGYYYWGQGTQVTVSSGGGGSGGGGSGGGGSQTVVTQEPSLSVSPGGTVTLTCGLSSGSVTSSNYPAWYQQTPGQAPRALIYSINSRHSGVPDRFSGSISGNKAALTITGAQAEDEADYYCTLYMGTGSNNVVFGGGTHLTVL", "pKd", 9.52],
  ["8H11 scFv-human Fc (Fc fusion, also called 008H11; not shown: CH2-CH3 constant domains of human IgG1 (pUPEX50 scFv-Fc fusion vector)) scFv: ELQLVESGGGLVQPGGSLRLSCAASGFTFSTNYMNWVRQAPGKGLEWVSGITSGGGRTYYADSVKGRFTISRDNAKNTLYLQMNSLKPEDTALYYCARTDHAWLDAWGQGTLVTVSSGGGGSGGGGSGGGGSQAGLTQPPSVSGTLGKTVTISCAGTSSDVGYGNYVSWYQQLPGTAPKLLIYAVSTRASGIPDRFSGSKSGNTASLTISGLLSEDEADYYCASYRSSNNYVFGGGTKLTVL", "pKd", 8.74]
]}
